- SUBJECT OF TEST: T1, recombinant human MET extracellular domain (MET ECD) (human, UniProt P08581 25-932)
- T1 construct: extracellular domain; also called full-length MET-ECD molecule
- PROCEDURE SUMMARY: BIAcore 2000; MET ECD amine-coupled on CM5 chip, antibody injected at 100-1 nM, global fit
Exercise: for every item that follows, state its recorded Kd.
Remember to quote the unit after the number.

Ask | What does the record list as Kd for 28-MET human IgG1 antibody (antibody, V domains shown, Fab variable regions combined with human constant regions to give a full human IgG1; ATCC deposit PTA-9149; also called 28-MET IgG; MET-28 IgG) VH: QVQLQESGPGLVKPGETLSLTCTVSGGSISGYYWSWIRQAPGKGLEWIGEIYYAGSTLYNPSLKGRVTISVDTSKNQFSLKLSSVTAEDTAVYYCARHYGLDWFGDTGMDVWGQGTLVTVSS VL: DIELTQPPSVSVAPGQSITISCSGDNLGDKYVHWYQQKPGQAPVLVIYDDNERPSGIPERFSGSNSGNTATLTISGTQAEDEADYYCSAYGSHSGTVFGGGTKLTVLG ?
Reply | 47.9 nM

Ask | Next up: 28-MET monovalent Fab (Fab, V domains shown, Monovalent human Fab from the Morphosys HuCAL GOLD Fab library; the Fab constant parts are not; also called Fab-28; R28) VH: QVQLQESGPGLVKPGETLSLTCTVSGGSISGYYWSWIRQAPGKGLEWIGEIYYAGSTLYNPSLKGRVTISVDTSKNQFSLKLSSVTAEDTAVYYCARHYGLDWFGDTGMDVWGQGTLVTVSS VL: DIELTQPPSVSVAPGQSITISCSGDNLGDKYVHWYQQKPGQAPVLVIYDDNERPSGIPERFSGSNSGNTATLTISGTQAEDEADYYCSAYGSHSGTVFGGGTKLTVLG
Reply | 49 nM

Ask | Record: 19-MET (divalent dimer of two 28-MET Fabs linked via a helix-loop-helix motif) (other, also called 19d; dimeric Fab-dHLX of Fab 28) VH: QVQLQESGPGLVKPGETLSLTCTVSGGSISGYYWSWIRQAPGKGLEWIGEIYYAGSTLYNPSLKGRVTISVDTSKNQFSLKLSSVTAEDTAVYYCARHYGLDWFGDTGMDVWGQGTLVTVSS VL: DIELTQPPSVSVAPGQSITISCSGDNLGDKYVHWYQQKPGQAPVLVIYDDNERPSGIPERFSGSNSGNTATLTISGTQAEDEADYYCSAYGSHSGTVFGGGTKLTVLG
Reply | 8.7 nM

Ask | Repeat for the following binder: 13-MET human IgG1 antibody (antibody, V domains shown, Fab variable regions combined with human constant regions to give a full human IgG1; ATCC deposit PTA-9148; also called 13-MET IgG; MET-13 IgG) VH: QVQLKESGPALVKPTQTLTLTCTFSGFSLSTSGMVVSWIRQPPGKALEWLAFISWDDDKYYSTSLKTRLTISKDTSKNQVVLTMTNMDPVDTATYYCAREPGRYGGYYFDYWGQGTLVTVSS VL: DIQMTQSPSSLSASVGDRVTITCRASQTISHYLAWYQQKPGKAPKLLIYAASILQSGVPSRFSGSGSGTDFTLTISSLQPEDFAVYYCQQYSGFPVTFGQGTKVEIKR
Reply | 0.9 nM
